# assay_system: recombinant human NF-kappaB-inducing kinase (NIK/MAP3K14) (Homo sapiens (Human), UniProt Q99558)
# Sequence (Q99558 whole entry): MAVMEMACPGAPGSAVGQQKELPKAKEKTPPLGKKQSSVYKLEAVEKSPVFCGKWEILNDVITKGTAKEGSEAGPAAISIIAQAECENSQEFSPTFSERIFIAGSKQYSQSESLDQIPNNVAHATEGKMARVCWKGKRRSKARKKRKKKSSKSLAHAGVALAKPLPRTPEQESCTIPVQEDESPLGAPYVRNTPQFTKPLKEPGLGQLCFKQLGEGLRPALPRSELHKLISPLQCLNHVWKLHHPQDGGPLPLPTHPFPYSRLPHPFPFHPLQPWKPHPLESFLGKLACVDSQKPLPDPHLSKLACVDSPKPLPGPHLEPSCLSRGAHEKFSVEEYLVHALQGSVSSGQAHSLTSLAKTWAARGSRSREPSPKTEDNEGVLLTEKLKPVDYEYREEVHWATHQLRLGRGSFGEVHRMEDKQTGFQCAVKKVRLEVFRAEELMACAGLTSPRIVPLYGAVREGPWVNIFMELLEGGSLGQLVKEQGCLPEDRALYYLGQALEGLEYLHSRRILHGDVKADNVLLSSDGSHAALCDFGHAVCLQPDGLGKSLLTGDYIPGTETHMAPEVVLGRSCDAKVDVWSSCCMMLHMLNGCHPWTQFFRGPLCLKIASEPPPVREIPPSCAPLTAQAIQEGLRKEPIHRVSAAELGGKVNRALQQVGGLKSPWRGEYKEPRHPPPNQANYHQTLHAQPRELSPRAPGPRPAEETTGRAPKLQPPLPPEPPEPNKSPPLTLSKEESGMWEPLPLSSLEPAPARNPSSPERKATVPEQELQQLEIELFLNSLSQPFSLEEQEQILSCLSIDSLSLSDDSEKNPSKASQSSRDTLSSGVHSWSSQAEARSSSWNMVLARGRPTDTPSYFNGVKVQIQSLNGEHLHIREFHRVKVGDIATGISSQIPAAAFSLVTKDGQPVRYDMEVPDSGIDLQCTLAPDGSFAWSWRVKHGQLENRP
# protocol_text: Inhibition of auto-phosphorylation of recombinant human NIK/MAP3K14 (AlphaScreen)
# condition_description: NIK auto-phosphorylation, 5 μM ATP, 1 nM NIK, 2 h at 25° C.; average of values
pIC50: −log10 of the molar value.
Use 1 (yes) when the recorded pIC50 is no lower than 7; use 0 (no) when it is lower.

[ask] Check if pIC50 >= 7 (inclusive). Item: Cc1nc(N)c2nc(-c3cc(C#C[C@]4(O)CCN(C)C4=O)ccc3C)sc2n1
[reply] 1 (yes)

[ask] Note, next up: Cc1ccc(C#C[C@@](C)(O)c2nccs2)cc1-c1ccc2ccnc(N)c2c1
[reply] 1 (yes)

[ask] Note, next up: Cc1cc2cnc(-c3cccc(C#C[C@@](C)(O)c4nccs4)c3)nc2c(N)n1
[reply] 1 (yes)

[ask] Note, next up: CN1CC[C@@](O)(C#Cc2cccc(-c3ncc4c(CC(C)(C)C)cnc(N)c4n3)c2)C1=O
[reply] 1 (yes)

[ask] Note, next up: Cc1cnc(C)c2nc(-c3cccc(C#C[C@]4(O)CCN(C)C4=O)c3)ccc12
[reply] 1 (yes)

[ask] Note, next up: CCNc1ncnc2ccc(-c3cccc(C#C[C@]4(O)CCN(C)C4=O)c3)nc12
[reply] 1 (yes)

[ask] Note, next up: Cc1cnc(N)c2nc(-c3cccc(C#C[C@]4(O)CCn5ccnc54)c3)ncc12
[reply] 1 (yes)

[ask] Note, next up: CN1CC[C@@](O)(C#Cc2cccc(-c3ccc4ncnc(-c5ccccc5)c4n3)c2)C1=O
[reply] 1 (yes)

[ask] Note, next up: CN1CC[C@@](O)(C#Cc2cccc(-c3ncc4ncnc(N)c4n3)c2)C1=O
[reply] 1 (yes)

[ask] Note, next up: Cc1nc(-c2cccc(C#Cc3ccn[nH]3)c2)nc2c(N)nccc12
[reply] 1 (yes)

[ask] Note, next up: CN1CCC(O)(C#Cc2cccc(-c3ccc4ccnc(N)c4n3)c2)C1=O (stereo in doubt)
[reply] 1 (yes)

[ask] Note, next up: COc1ccc(C#C[C@]2(O)CCN(C)C2=O)cc1-c1ncc2ncnc(N)c2n1
[reply] 1 (yes)

[ask] Note, next up: Cc1nc(N)c2nc(-c3cccc(C#C[C@@](C)(O)c4ccccn4)c3)ccc2n1
[reply] 0 (no)

[ask] Note, next up: Cc1cnc(N)c2nc(-c3cccc(C#C[C@]4(O)CCc5cccnc54)c3)ncc12
[reply] 1 (yes)

[ask] Note, next up: Cc1cc([C@](C)(O)C#Cc2ccc(C)c(-c3ccc4ccnc(N)c4c3)c2)no1
[reply] 0 (no)

[ask] Note, next up: Cc1ccc(C#C[C@]2(O)C[C@@H](C)N(C)C2=O)cc1-c1nc2c(N)ncnc2s1
[reply] 1 (yes)

[ask] Note, next up: CN1CC[C@@](O)(C#Cc2cccc(-c3ncc4c(I)cnc(N)c4n3)c2)C1=O
[reply] 1 (yes)

[ask] Note, next up: Cc1ccc(C#C[C@]2(O)CCN(C)C2=O)cc1-c1ncc2ccnc(N)c2n1
[reply] 1 (yes)

[ask] Note, next up: CN1CC[C@@](O)(C#Cc2cccc(-c3ncc4cc[nH]c(=O)c4n3)c2)C1=O
[reply] 1 (yes)

[ask] Note, next up: CNC(=O)C1CN(c2ncnc3ccc(-c4cccc(C#C[C@]5(O)CCN(C)C5=O)c4)nc23)C1
[reply] 1 (yes)

[ask] Note, next up: Nc1nccc2cnc(-c3cccc(C#C[C@@]4(O)CCn5ccnc54)c3)nc12
[reply] 1 (yes)

[ask] Note, next up: CC(=O)Nc1nc(C)nc2ccc(-c3cccc(C#C[C@]4(O)CCN(C)C4=O)c3)nc12
[reply] 0 (no)

[ask] Note, next up: Cc1ccc(C#C[C@]2(O)CCn3ccnc32)cc1-c1ccc2ccnc(N)c2c1
[reply] 1 (yes)

[ask] Note, next up: CN1CC[C@@](O)(C#Cc2cccc(-c3ncc4ccnc(N)c4n3)c2)C1=O
[reply] 1 (yes)

[ask] Note, next up: [2H]C([2H])([2H])N1CC[C@@](O)(C#Cc2cccc(-c3nc(C)c4ccnc(N)c4n3)c2)C1=O
[reply] 1 (yes)

[ask] Note, next up: CN1CC[C@@](O)(C#Cc2cccc(-c3cc(C(F)(F)F)c4ncnc(N)c4c3)c2)C1=O
[reply] 1 (yes)

[ask] Note, next up: Cc1cc([C@](C)(O)C#Cc2cccc(-c3ccc4ncnc(N)c4n3)c2)no1
[reply] 1 (yes)

[ask] Note, next up: Cc1nc(N)c2nc(-c3cccc(C#C[C@]4(O)C(=O)N(C)[C@H]5C[C@H]54)c3)ccc2n1
[reply] 0 (no)

[ask] Note, next up: CN1CC[C@@](O)(C#Cc2cccc(-c3cc(-n4cccn4)c4ncnc(N)c4n3)c2)C1=O
[reply] 1 (yes)

[ask] Note, next up: CN1CC[C@@](O)(C#Cc2cccc(N3CCc4ncnc(N)c4C3)c2)C1=O
[reply] 1 (yes)

[ask] Note, next up: Cc1nc(N)c2nc(-c3cccc(C#C[C@@]4(O)CCN(C)C4=O)c3)ccc2n1
[reply] 0 (no)

[ask] Note, next up: Cc1nc(N)c2nc(-c3cccc(C#C[C@@]4(O)C(=O)N(C)[C@@H]5C[C@@H]54)c3)ccc2n1
[reply] 1 (yes)
